Molecular target: DYRK2 (Homo sapiens)
Sequence (Q92630 1-601): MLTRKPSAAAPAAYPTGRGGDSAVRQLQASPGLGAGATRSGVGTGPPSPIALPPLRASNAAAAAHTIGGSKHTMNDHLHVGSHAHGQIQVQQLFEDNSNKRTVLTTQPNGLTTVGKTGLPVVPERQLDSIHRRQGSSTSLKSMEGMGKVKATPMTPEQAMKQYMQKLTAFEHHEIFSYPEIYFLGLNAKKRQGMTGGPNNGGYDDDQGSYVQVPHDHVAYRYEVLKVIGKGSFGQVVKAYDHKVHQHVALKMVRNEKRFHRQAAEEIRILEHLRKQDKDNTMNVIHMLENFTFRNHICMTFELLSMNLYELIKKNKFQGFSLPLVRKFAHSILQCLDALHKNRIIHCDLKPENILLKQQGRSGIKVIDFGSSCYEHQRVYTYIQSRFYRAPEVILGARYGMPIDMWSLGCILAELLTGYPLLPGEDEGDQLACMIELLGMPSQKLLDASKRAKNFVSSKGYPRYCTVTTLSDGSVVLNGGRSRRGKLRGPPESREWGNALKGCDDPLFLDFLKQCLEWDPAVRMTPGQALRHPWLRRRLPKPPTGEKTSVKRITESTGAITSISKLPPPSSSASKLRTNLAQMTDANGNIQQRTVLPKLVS
Measured parameter: IC50
Answers without a unit are incomplete; give the number and then its unit.

Kindly note the recorded IC50 for COc1ccc2c(c1)[nH]c1c(C)nccc12 , which is 900 nM
